Test system: primary CLL cells
experiment.notes: qHTS luminescent ATP cell viability assay (CellTiter-Glo), primary screen, frozen CLL patient cells
Type: cell-based, human
condition: Homo sapiens, CLL cell, CLL patient #4808
Text: Lymphocytes from 13 CLL treatment naïve patients (Table 1 ) and 5 normal donors were obtained by lymphapheresis with written informed consent and isolated by gradient centrifugation using Lymphocyte Separation Medium (MP Biomedicals, Solon, OH) and used fresh or cryopreserved in liquid nitrogen in 10% dimethyl sulfoxide, 90% FCS. […]
quantity: pIC50
# pIC50: negative log10 of molar concentration; output just the value

The recorded pIC50 for entry CC(=O)[C@]1(O)Cc2c(O)c3c(c(O)c2[C@@H](O[C@H]2C[C@H](N)[C@H](O)[C@H](C)O2)C1)C(=O)c1ccccc1C3=O [idarubicin] equals 7.00
